Entry source: ChEMBL document CHEMBL1142728

Let's look at some compounds and their measured log10 IC50.
# target or test system: Human immunodeficiency virus type 1 integrase (Human immunodeficiency virus 1)
# assay details: Log of inhibitory concentration against human immunodeficiency virus type 1 integrase
Record value = log10 of IC50 given in nM.

See these solved cases before continuing.
[
  {
    "input smiles": "Cc1ccc(CN2C(=O)c3c(c(O)c4nccnc4c3O)C2=O)cc1",
    "log10 IC50": 3.20
  },
  {
    "input smiles": "COc1ccc(CN2C(=O)c3c(c(O)c4nccnc4c3O)C2=O)c(OC)c1",
    "log10 IC50": 2.63
  },
  {
    "input smiles": "O=C1c2c(c(O)c3nccnc3c2O)C(=O)N1Cc1ccncc1",
    "log10 IC50": 3.83
  },
  {
    "input smiles": "COc1ccc(OC)c(CN2C(=O)c3c(c(O)c4nccnc4c3O)C2=O)c1",
    "log10 IC50": 2.89
  },
  {
    "input smiles": "O=C1c2c(c(O)c3nccnc3c2O)C(=O)N1C1CCCC1",
    "log10 IC50": 4.02
  }
]

-- ask log10 IC50 for COc1cccc(CN2C(=O)c3c(c(O)c4nccnc4c3O)C2=O)c1OC ?
-- reply 2.63

-- ask log10 IC50 for COc1ccccc1CN1C(=O)c2c(c(O)c3nccnc3c2O)C1=O ?
-- reply 2.91

-- ask log10 IC50 for C[C@H](c1ccccc1)N1C(=O)c2c(c(O)c3nccnc3c2O)C1=O ?
-- reply 3.02

-- ask log10 IC50 for O=C1c2c(c(O)c3nccnc3c2O)C(=O)N1CC1CCCCC1 ?
-- reply 3.34

====

# target or test system: Human immunodeficiency virus type 1 integrase (Human immunodeficiency virus 1, UniProt Q7ZJM1)
# Sequence (Q7ZJM1 whole entry): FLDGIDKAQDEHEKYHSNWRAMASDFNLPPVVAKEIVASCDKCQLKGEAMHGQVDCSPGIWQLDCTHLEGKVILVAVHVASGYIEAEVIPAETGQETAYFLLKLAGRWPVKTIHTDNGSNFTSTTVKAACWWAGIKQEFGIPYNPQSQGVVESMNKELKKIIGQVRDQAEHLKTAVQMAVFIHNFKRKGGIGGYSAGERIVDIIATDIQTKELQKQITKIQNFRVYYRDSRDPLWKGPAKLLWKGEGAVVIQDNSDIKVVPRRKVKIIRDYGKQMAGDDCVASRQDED
# assay details: Log of inhibitory concentration against human immunodeficiency virus type 1 integrase
readout: log10 of IC50 (log10 of the value in µM)
Record value = log10 of IC50 given in µM.

See these solved cases before continuing.
[
  {
    "input smiles": "O=C1c2c(c(O)c3nccnc3c2O)C(=O)N1Cc1ccc(F)c(Cl)c1",
    "value observed": -0.75
  },
  {
    "input smiles": "C[C@@H](c1ccccc1)N1C(=O)c2c(c(O)c3nccnc3c2O)C1=O",
    "value observed": 0.31
  },
  {
    "input smiles": "O=C1c2c(c(O)c3nccnc3c2O)C(=O)N1CCc1ccccc1",
    "value observed": 0.31
  },
  {
    "input smiles": "O=C1c2c(c(O)c3nnccc3c2O)C(=O)N1Cc1cccc(Br)c1",
    "value observed": 0.56
  },
  {
    "input smiles": "O=C1c2c(c(O)c3nccnc3c2O)C(=O)N1Cc1cc(Br)ccc1F",
    "value observed": -0.45
  }
]

-- ask log10 of IC50 for O=C1c2c(c(O)c3nccnc3c2O)C(=O)N1Cc1cc(F)cc(F)c1 ?
-- reply -0.43

-- ask log10 of IC50 for O=C1c2c(c(O)c3nccnc3c2O)C(=O)N1CCc1ccc2c(c1)OCO2 ?
-- reply 0.15

-- ask log10 of IC50 for O=C1c2c(c(O)c3nccnc3c2O)C(=O)N1Cc1cccc(-c2ccccc2F)c1 ?
-- reply -0.30

====

# target or test system: Human immunodeficiency virus type 1 integrase (Human immunodeficiency virus 1, UniProt Q7ZJM1)
# assay details: Log of inhibitory concentration against human immunodeficiency virus type 1 integrase
Let's look at some compounds and their measured IC50.
Return type: number; implicit unit nM.

See these solved cases before continuing.
[
  {
    "input smiles": "O=C1c2c(c(O)c3nccnc3c2O)C(=O)N1Cc1cccc(C(F)(F)F)c1",
    "value observed": 427
  },
  {
    "input smiles": "O=C1c2c(c(O)c3nccnc3c2O)C(=O)N1Cc1cc(Cl)cc(Cl)c1",
    "value observed": 186
  },
  {
    "input smiles": "O=C1c2c(c(O)c3nccnc3c2O)C(=O)N1c1ccc2c(c1)OCO2",
    "value observed": 10000
  }
]

-- ask IC50 for O=C1c2c(c(O)c3nccnc3c2O)C(=O)N1Cc1ccc(Cl)cc1 ?
-- reply 417

-- ask IC50 for O=C1c2c(c(O)c3nccnc3c2O)C(=O)N1Cc1ccc(F)cc1 ?
-- reply 417

-- ask IC50 for O=C1c2c(c(O)c3ncccc3c2O)C(=O)N1Cc1cccc(Br)c1 ?
-- reply 380

-- ask IC50 for O=C1c2c(c(O)c3nccnc3c2O)C(=O)N1Cc1ccc2c(c1)OCO2 ?
-- reply 562

-- ask IC50 for O=C1c2c(c(O)c3nccnc3c2O)C(=O)N1Cc1cccc(Cl)c1 ?
-- reply 219

-- ask IC50 for O=C1c2c(c(O)c3nccnc3c2O)C(=O)N1Cc1ccc(Br)cc1F ?
-- reply 437

-- ask IC50 for O=C1c2c(c(O)c3nccnc3c2O)C(=O)N1Cc1ccc(-c2ccccc2)cc1 ?
-- reply 1450

-- ask IC50 for COc1cccc(OC)c1CN1C(=O)c2c(c(O)c3nccnc3c2O)C1=O ?
-- reply 2000
